Below, each entry is listed with its recorded IC50.
Test system: PBMC
test details: Inhibition of LPS-induced TNFalpha production in human PBMC preincubated 1 hr prior to LPS stimulation measured after 18 to 20 hrs by ELISA
Assay type: functional, cell-based
endpoint label: IC50 (nM)

- CCOc1cc(C(=CC#N)c2ccc(OC)c(OCC)c2)ccc1OC: 48
- CCOc1cc(C(=CC#N)c2ccc(OC)c(OC(=O)N(C)C)c2)ccc1OC: 240
- CCOc1cc(C(=CC#N)c2ccc(NC)cc2)ccc1OC: 140
- COc1ccc(/C=C\c2cc(OC)c(OC)c(OC)c2)cc1O: 11
- CC=C(c1cc(OC)cc(OC)c1)c1ccc(OC)c(O)c1: 150
- C=C(c1cc(OC)cc(OC)c1)c1ccc(OC)c(N)c1: 330
- COc1cc(OC)cc(C(=CC#N)c2ccc(OC)c(O)c2)c1: 1.2
- CCOc1cc(C(=CC#N)c2cccc(OC)c2)ccc1OC: 230
- COc1ccc(C(=CC#N)c2cc(OC)cc(OC)c2)cc1: 440
- C=C(c1ccc(OC)c(N)c1)c1ccc(OC)c(OCC)c1: 380

---

Below, each entry is listed with its recorded inhibition.
test details: Inhibition of tubulin polymerization at 10 uM after 60 mins by spectrophotometry
endpoint label: inhibition (%)

- COc1cccc(C(=CC#N)c2cc(OC)cc(OC)c2)c1: 88
- CCOc1cc(C(=CC#N)c2ccc(OC)c(N)c2)ccc1OC: 76
- COc1cc(OC)cc(C(=CC#N)c2ccc(OC)c(OC)c2)c1: 84
- CCOc1cc(C(=CC#N)c2cc(OC)cc(OC)c2)ccc1OC: 59

---

Below, each entry is listed with its recorded IC50.
System: PBMC
test details: Inhibition of LPS-induced TNFalpha production in human PBMC preincubated 1 hr prior to LPS stimulation measured after 18 to 20 hrs by ELISA
Format: functional, cell-based
endpoint label: IC50

- COc1cc(OC)cc(C(=Cc2ccccc2)c2ccc(OC)c(O)c2)c1: > 10 µM
- COc1cc(OC)cc(C(=CC(=O)O)c2ccc(OC)c(OC)c2)c1: > 10 µM
- CCC=C(c1cc(OC)cc(OC)c1)c1ccc(OC)c(OC)c1: > 10 µM
